Recorded melting point for the following compounds

Recorded melting point, per entry:
compound=CCc1nc2c(N)nc3ccccc3c2n1CCCS(C)(=O)=O reported_measurement="> 250 °C"
compound=Cc1nc2c(N)nc3ccccc3c2n1CCCCCCS(C)(=O)=O reported_measurement="202 to 206 °C"
compound=Cc1nc2c(N)nc3c(c2n1CCCCS(C)(=O)=O)CCCC3 reported_measurement="213 to 216 °C"
compound="CCCCc1nc2c(N)nc3ccccc3c2n1CCCC[S+](C)[O-] (centres unmarked)" reported_measurement="126 to 128 °C"
compound=Cc1nc2c(N)nc3c(c2n1CCCCCS(C)(=O)=O)CCCC3 reported_measurement="172 to 174 °C"

Input line: I have this compound here, CCCc1nc2c(N)nc3ccccc3c2n1CCCCCS(C)(=O)=O , and I need its recorded melting point.
Output line: 179 to 181 °C

Input line: I have this compound here, CCc1nc2c(N)nc3ccccc3c2n1CCCCSC , and I need its recorded melting point.
Output line: 183 to 186 °C

Input line: I have this compound here, Cc1nc2c(N)nc3ccccc3c2n1CCCCS(C)(=O)=O , and I need its recorded melting point.
Output line: 206 to 209 °C

The measurements presented in this section are drawn from patent US6667312B2.
